Test system: MCF-10A
Experiment: Cytotoxicity against human MCF-10A cells at 20 uM incubated for 48 hrs by MTT assay
Type: toxicity, cell-based
result-type: Activity

CN1CCN(c2ccc(-c3ccc4nc(-c5ccc(C(=O)Nc6ccc(Br)cc6Cl)cc5)[nH]c4c3)cc2)CC1
Non-toxic
CN1CCN(c2ccc(-c3ccc4nc(-c5ccc(C(=O)Nc6cccc(Br)c6)cc5)[nH]c4c3)cc2)CC1
Non-toxic
CN1CCN(c2ccc(-c3ccc4nc(-c5ccc(C(=O)Nc6ccc(Cl)cc6)cc5)[nH]c4c3)cc2)CC1
Non-toxic
CN1CCN(c2ccc(-c3ccc4nc(-c5ccc(C(=O)Nc6ccc(Br)cc6F)cc5)[nH]c4c3)cc2)CC1
Non-toxic
COc1ccc(NC(=O)c2ccc(-c3nc4ccc(-c5ccc(N6CCN(C)CC6)cc5)cc4[nH]3)cc2)cc1
Non-toxic
CN1CCN(c2ccc(-c3ccc4nc(-c5ccc(C(=O)Nc6ccc(C(F)(F)F)cc6)cc5)[nH]c4c3)cc2)CC1
Non-toxic
CN1CCN(c2ccc(-c3ccc4nc(-c5ccc(C(=O)Nc6c(Br)cccc6Br)cc5)[nH]c4c3)cc2)CC1
Non-toxic
CN1CCN(c2ccc(-c3ccc4nc(-c5ccc(C(=O)Nc6ccc(F)cc6Cl)cc5)[nH]c4c3)cc2)CC1
Non-toxic

These entries and their values trace back to ChEMBL document CHEMBL6092196.
